Exercise: for every item that follows, state its recorded Emax.
System: c-myc in 22RV-1 cells
Assay Text: Human c-myc ELISA assay
Type: cell-based
Run Conditions: Homo sapiens, 22Rv1, 18 h, read-out: Degradation of BRD4: Maximum inhibition (%) c-Myc ELISA in 22RV1 cells
One number for each entry, in %.

For orientation, consider the following solved cases.
Cc1ncsc1-c1ccc(CNC(=O)[C@@H]2C[C@@H](O)CN2C(=O)[C@@H](NC(=O)COCCCOc2ccc(-c3ccc(NC(=O)C[C@@H]4N=C(c5ccc(Cl)cc5)c5c(sc(C)c5C)-n5c(C)nnc54)cn3)cc2F)C(C)(C)C)cc1 [Example 23]
91
Cc1ncsc1-c1ccc(CNC(=O)[C@@H]2C[C@@H](O)CN2C(=O)[C@@H](NC(=O)COCCN2CCN(c3ccc([C@@H](C)NC(=O)C[C@@H]4N=C(c5ccc(Cl)cc5)c5c(sc(C)c5C)-n5c(C)nnc54)cc3)CC2)C(C)(C)C)cc1 [Example 59]
95

## Task # query: Emax of entry Cc1ncsc1-c1ccc(CNC(=O)[C@@H]2C[C@@H](O)CN2C(=O)[C@@H](NC(=O)COCCCOCCCOc2ccc(NC(=O)C[C@@H]3N=C(c4ccc(Cl)cc4)c4c(sc(C)c4C)-n4c(C)nnc43)c(F)c2)C(C)(C)C)cc1 [Example 20]
## Result 94
